# assayed system: dopamine 2 (D2) receptor (Rattus norvegicus, UniProt P61169)
# Construct: A synaptosome fraction was separated from corpus striatum
# Sequence (P61169 whole entry): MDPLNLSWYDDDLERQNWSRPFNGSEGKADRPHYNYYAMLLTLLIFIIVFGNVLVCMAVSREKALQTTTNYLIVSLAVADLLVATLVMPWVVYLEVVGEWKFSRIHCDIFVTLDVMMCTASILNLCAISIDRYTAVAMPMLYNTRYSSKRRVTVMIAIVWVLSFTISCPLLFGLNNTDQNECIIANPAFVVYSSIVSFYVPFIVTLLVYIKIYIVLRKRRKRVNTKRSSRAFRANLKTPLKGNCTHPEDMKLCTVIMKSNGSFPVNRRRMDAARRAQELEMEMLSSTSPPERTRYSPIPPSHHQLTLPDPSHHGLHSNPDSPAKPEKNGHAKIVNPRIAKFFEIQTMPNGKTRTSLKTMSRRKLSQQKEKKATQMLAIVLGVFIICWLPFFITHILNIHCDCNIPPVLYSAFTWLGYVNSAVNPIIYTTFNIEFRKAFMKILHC
# method description: Affinity for dopamine 2 receptor ([3H]spiperone binding, synaptosome fraction of corpus striatum)
# study conditions: tritiated spiperone 0.2 nM, 37° C., 20 minutes, read-out: binding D2, inhibition constant (Ki value)
Measured Ki accompanies every entry in the list below.

# structure smiles string, unit string, Ki
measured = [
    ("CC(=O)NCc1cc(CCN2CCC(c3noc4cc(F)ccc34)CC2)c(C)s1", "nM", 1.4),
    ("CC(=O)NCc1ccc(CCN2CCC(c3noc4cc(F)ccc34)CC2)s1", "nM", 3.8),
    ("CC(=O)Nc1ccc(SCCCN2CCC(c3noc4cc(F)ccc34)CC2)s1", "nM", 0.71),
    ("CC(=O)NCCc1ccc(CCN2CCC(c3noc4cc(F)ccc34)CC2)s1", "nM", 0.94),
    ("NCc1ccc(CCCCN2CCC(c3noc4cc(F)ccc34)CC2)s1", "nM", 0.69),
    ("CC(=O)c1ccc(SCCCN2CCN(c3nsc4ccccc34)CC2)s1", "nM", 1.3),
    ("CC(=O)NCc1sc(CCN2CCC(c3noc4cc(F)ccc34)CC2)cc1C", "nM", 3.8),
    ("CC(=O)NCCc1sc(CCN2CCC(c3noc4cc(F)ccc34)CC2)cc1Br", "nM", 0.5),
    ("CC(=O)NCc1ccc(C(=O)CCCN2CCC(c3noc4cc(F)ccc34)CC2)s1", "nM", 2.5),
    ("CC(=O)NCc1ccc(SCCCN2CCC(c3noc4cc(F)ccc34)CC2)s1", "nM", 0.8),
    ("CC(=O)NCc1ccc(CCCCN2CCC(c3noc4cc(F)ccc34)CC2)s1", "nM", 2),
    ("CC(=O)c1ccc(SCCCN2CCC(c3noc4cc(F)ccc34)CC2)s1", "nM", 0.61),
]
